- Species: Ovis aries
- procedure-summary: Inhibition of sheep brain dynamin 1 at 400 uM after 30 mins by malachite green method
Activity calls are given as the source filed them. The calls are words filed in the database; no cut-off is given here.
experimental-readout: inhibition

// below: answered molecules
INSERT INTO assay_data (entry_smiles, observed_result) VALUES
  ('O=C(Nc1cc(Cl)ccc1C(=O)O)c1ccc2c(c1)C(=O)N(CCc1ccccc1)C2=O', 'inactive'),
  ('O=C(Nc1cc(Cl)ccc1C(=O)O)c1ccc2c(c1)C(=O)N(c1ccccc1CO)C2=O', 'inactive'),
  ('Cc1cccc(C)c1N1C(=O)c2ccc(C(=O)Nc3cc(Cl)ccc3C(=O)O)cc2C1=O', 'inactive'),
  ('O=C(Nc1cc(Cl)ccc1C(=O)O)c1ccc2c(c1)C(=O)N(c1ccccc1-c1ccccc1)C2=O', '40%');

Then this molecule:
The molecule listed as O=C(Nc1cc(Cl)ccc1C(=O)O)c1ccc2c(c1)C(=O)N(Cc1ccccc1)C2=O shows inhibition equal to inactive

Recorded values, source ChEMBL document CHEMBL1155454.
